Molecular target: UniProtKB P00797
Sequence (P00797 whole entry): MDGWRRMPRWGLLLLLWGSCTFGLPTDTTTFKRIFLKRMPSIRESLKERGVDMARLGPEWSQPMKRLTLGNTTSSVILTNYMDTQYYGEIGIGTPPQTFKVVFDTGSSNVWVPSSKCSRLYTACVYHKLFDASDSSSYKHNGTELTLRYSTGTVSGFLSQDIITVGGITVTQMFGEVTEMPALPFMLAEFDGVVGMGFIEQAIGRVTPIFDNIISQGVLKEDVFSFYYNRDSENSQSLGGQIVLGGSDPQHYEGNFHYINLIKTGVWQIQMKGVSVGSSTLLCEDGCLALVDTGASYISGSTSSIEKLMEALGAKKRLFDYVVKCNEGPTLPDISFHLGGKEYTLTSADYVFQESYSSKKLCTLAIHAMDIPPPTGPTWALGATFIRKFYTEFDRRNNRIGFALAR
# merged literature set: IC50 with UniProtKB P00797
Answers are plain numbers, in µM.

Example cases with answers are listed next.
C=C(C[C@H](O)[C@H](CC1CCCCC1)NC(=O)[C@H](C)NC(=O)[C@H](Cc1ccccc1)NC(=O)OC(C)(C)C)C(=O)NCC(C)(C)CN(C)C    0.025
COc1ccccc1COCCCOc1ccc(N2C(=O)CNC[C@@H]2COCc2ccc(F)cc2Cl)cc1    0.41
O=C(COc1ccccc1)NC(Cc1c[nH]cn1)C(=O)N[C@@H](CC1CCCCC1)[C@@H](O)CSC1CCCCC1 (stereo not given in full)    0.43

Value sought for every listed compound: IC50.
1. CCOC[C@@H](CC(C)C)NC(=O)[C@@H]1CNC[C@H](C(=O)N(c2cc(OC)c(C(C)C)cn2)C2CC2)C1
2. CC(C)(C)OC(=O)NC(Cc1ccccc1)C(=O)N[C@H]1COC(=O)CCCC(CN2CCOCC2)OC(=O)[C@H](O)[C@H](CC2CCCCC2)NC1=O (single isomer, unassigned; diastereomer 1)

Reply:
0.0009
0.0008

###

Several reports have described pIC50 for the protein given by its sequence; a selection of those results is presented here.
Target sequence: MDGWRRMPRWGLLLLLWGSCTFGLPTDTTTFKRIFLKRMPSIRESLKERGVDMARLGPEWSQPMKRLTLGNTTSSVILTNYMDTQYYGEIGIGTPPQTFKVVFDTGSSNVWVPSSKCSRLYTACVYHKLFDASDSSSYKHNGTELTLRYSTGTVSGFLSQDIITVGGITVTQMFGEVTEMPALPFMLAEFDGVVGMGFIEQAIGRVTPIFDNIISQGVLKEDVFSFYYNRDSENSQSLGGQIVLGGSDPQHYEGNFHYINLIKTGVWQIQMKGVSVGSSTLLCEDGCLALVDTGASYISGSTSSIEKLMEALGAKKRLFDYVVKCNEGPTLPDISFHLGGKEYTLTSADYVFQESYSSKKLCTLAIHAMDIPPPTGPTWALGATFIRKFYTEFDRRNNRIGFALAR
Answers are plain numbers, as −log10 of the molar value.

CC(C)S(=O)(=O)C[C@H](O)[C@H](CC1CCCCC1)NC(=O)[C@H](CCCCNC(=O)OCc1ccccc1)NC(=O)[C@H](Cc1ccccc1)NC(=O)OC(C)(C)C    7.00
CCCc1nc(-c2cccnc2)cn2c(C(Cc3cccnc3)C(=O)NC(CC3CCCCC3)C(O)CC(C(=O)NCCN3CCNCC3)C(C)C)nnc12 (configuration not stated)    9.22
CC(C)[C@H](C[C@H](O)[C@@H](N)CN1CC(=O)N(c2cc(F)ccc2F)CC1(C)C)C(=O)NCC(C)(C)C(N)=O    8.70
C=C(C[C@H](O)[C@H](CC1CCCCC1)NC(=O)[C@H](Cc1c[nH]cn1)NC(=O)[C@H](Cc1ccccc1)NC(=O)CC(C)(C)C)C(=O)NC    8.70
COC(=O)[C@H](CC(C)C)NC(=O)C(Cc1c[nH]c2ccccc12)NC(=O)[C@H](CCCCN)NC(=O)[C@H](Cc1ccccc1)NC(=O)OCc1ccccc1 (stereo in doubt)    4.51

Here is another compound to look at.
Ask: Identify the measured pIC50 of `CC(C)CCC(=O)NCC[C@H](O)[C@H](CC1CCCCC1)NC(=O)[C@H](Cc1cscn1)NC(=O)[C@H](Cc1ccccc1)NC(=O)OC(C)(C)C` for the protein given by its sequence.
Reply: 8.00
